- TGT: T1, TNFR1 (Homo sapiens, UniProt P19438)
- T1 chain: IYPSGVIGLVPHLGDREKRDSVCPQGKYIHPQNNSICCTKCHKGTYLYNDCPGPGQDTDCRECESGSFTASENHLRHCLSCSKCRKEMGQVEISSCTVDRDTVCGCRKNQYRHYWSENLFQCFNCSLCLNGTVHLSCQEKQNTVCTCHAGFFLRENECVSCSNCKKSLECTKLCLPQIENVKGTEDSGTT
- PROTOCOL_TEXT: yeast display SC50
READOUT_TYPE: apparent Kd (screen) (nM)
Field format: number, assumed nM, no unit text.

Query: Return apparent Kd (screen) (reported value) for this binder: Q84D (designed binder) SMEEEVEKAAKEYEKKKKEAIEKHLEKLKAKDKEAAERFLKELEEAAKEYAKDEAKTMSEEEAKRRAKKYKEKVLLSELSEEEDKEIKEAEEKLVRTILKYVEEAAK
Response: 3.63

Query: Output apparent Kd (screen) of S59Q (designed binder) SMEEEVEKAAKEYEKKKKEAIEKHLEKLKAKDKEAAERFLKELEEAAKEYAKDEAKTMQEEEAKRRAKKYKEKVLLSELSEEEQKEIKEAEEKLVRTILKYVEEAAK
Response: 1.16

Query: // Input: E37M (designed binder) SMEEEVEKAAKEYEKKKKEAIEKHLEKLKAKDKEAAMRFLKELEEAAKEYAKDEAKTMSEEEAKRRAKKYKEKVLLSELSEEEQKEIKEAEEKLVRTILKYVEEAAK . Output its apparent Kd (screen) only.
Response: 0.718

Query: Consider the binder S1I (designed binder) IMEEEVEKAAKEYEKKKKEAIEKHLEKLKAKDKEAAERFLKELEEAAKEYAKDEAKTMSEEEAKRRAKKYKEKVLLSELSEEEQKEIKEAEEKLVRTILKYVEEAAK . State its measured apparent Kd (screen).
Response: 0.79

Query: Consider the binder S80W (designed binder) SMEEEVEKAAKEYEKKKKEAIEKHLEKLKAKDKEAAERFLKELEEAAKEYAKDEAKTMSEEEAKRRAKKYKEKVLLSELWEEEQKEIKEAEEKLVRTILKYVEEAAK and give its recorded apparent Kd (screen).
Response: 3

Query: Note apparent Kd (screen) for the binder shown: E89L (designed binder) SMEEEVEKAAKEYEKKKKEAIEKHLEKLKAKDKEAAERFLKELEEAAKEYAKDEAKTMSEEEAKRRAKKYKEKVLLSELSEEEQKEIKLAEEKLVRTILKYVEEAAK
Response: 1.86

Query: Please supply the value of reported apparent Kd (screen) for the item T97N (designed binder) SMEEEVEKAAKEYEKKKKEAIEKHLEKLKAKDKEAAERFLKELEEAAKEYAKDEAKTMSEEEAKRRAKKYKEKVLLSELSEEEQKEIKEAEEKLVRNILKYVEEAAK
Response: 1.16

Query: Provide measured apparent Kd (screen) value, entry: K17E (designed binder) SMEEEVEKAAKEYEKKEKEAIEKHLEKLKAKDKEAAERFLKELEEAAKEYAKDEAKTMSEEEAKRRAKKYKEKVLLSELSEEEQKEIKEAEEKLVRTILKYVEEAAK
Response: 1.05

Query: Return reported apparent Kd (screen). Input binder: Y101L (designed binder) SMEEEVEKAAKEYEKKKKEAIEKHLEKLKAKDKEAAERFLKELEEAAKEYAKDEAKTMSEEEAKRRAKKYKEKVLLSELSEEEQKEIKEAEEKLVRTILKLVEEAAK
Response: 0.405

Query: Look up and report measured apparent Kd (screen) for this entry: A90L (designed binder) SMEEEVEKAAKEYEKKKKEAIEKHLEKLKAKDKEAAERFLKELEEAAKEYAKDEAKTMSEEEAKRRAKKYKEKVLLSELSEEEQKEIKELEEKLVRTILKYVEEAAK
Response: 0.446

Query: Give me measured apparent Kd (screen), please, for this binder: S59K (designed binder) SMEEEVEKAAKEYEKKKKEAIEKHLEKLKAKDKEAAERFLKELEEAAKEYAKDEAKTMKEEEAKRRAKKYKEKVLLSELSEEEQKEIKEAEEKLVRTILKYVEEAAK
Response: 1.05

Query: Indicate its recorded apparent Kd (screen); the binder in question is E4D (designed binder) SMEDEVEKAAKEYEKKKKEAIEKHLEKLKAKDKEAAERFLKELEEAAKEYAKDEAKTMSEEEAKRRAKKYKEKVLLSELSEEEQKEIKEAEEKLVRTILKYVEEAAK
Response: 0.446

Query: Provide measured apparent Kd (screen) value, entry: E61Q (designed binder) SMEEEVEKAAKEYEKKKKEAIEKHLEKLKAKDKEAAERFLKELEEAAKEYAKDEAKTMSEQEAKRRAKKYKEKVLLSELSEEEQKEIKEAEEKLVRTILKYVEEAAK
Response: 1.4

Query: Return reported apparent Kd (screen). Input binder: E91C (designed binder) SMEEEVEKAAKEYEKKKKEAIEKHLEKLKAKDKEAAERFLKELEEAAKEYAKDEAKTMSEEEAKRRAKKYKEKVLLSELSEEEQKEIKEACEKLVRTILKYVEEAAK
Response: 13.8

Query: Please look at this binder and report its apparent Kd (screen): A36V (designed binder) SMEEEVEKAAKEYEKKKKEAIEKHLEKLKAKDKEAVERFLKELEEAAKEYAKDEAKTMSEEEAKRRAKKYKEKVLLSELSEEEQKEIKEAEEKLVRTILKYVEEAAK
Response: 0.446

Query: Using known records, supply apparent Kd (screen) for E14C (designed binder) SMEEEVEKAAKEYCKKKKEAIEKHLEKLKAKDKEAAERFLKELEEAAKEYAKDEAKTMSEEEAKRRAKKYKEKVLLSELSEEEQKEIKEAEEKLVRTILKYVEEAAK
Response: 9.41
